target: Protein kinase C alpha type (Homo sapiens) (UniProt P17252); assay: Inhibition of PKCalpha at 10 uM by HTRF assay relative to control
VALUE TYPE: inhibition (%)
The answer is to be given in %; state only the numeric part.

Cc1cccc(Nc2nccc(Nc3cccc(C(=O)NCc4ccc(N(C)C)cc4)c3)n2)c1	3
Nc1nc(Nc2ccccc2)cc(N2CCC(C(=O)NCCc3ccccn3)CC2)n1	0

Turning now to a further record.
What measured inhibition is associated with O=C(NC[C@@H]1CCCO1)c1cccc(Nc2nccc(Nc3ccc4ncsc4c3)n2)c1 on Protein kinase C alpha type (Homo sapiens) (UniProt P17252)?
1

----------
The compounds listed here are annotated with their inhibition.
target: Serine/threonine-protein kinase Chk1 (Homo sapiens) (UniProt O14757); experiment: Inhibition of CHK1 at 10 uM by HTRF assay relative to control
Sequence (O14757 whole entry): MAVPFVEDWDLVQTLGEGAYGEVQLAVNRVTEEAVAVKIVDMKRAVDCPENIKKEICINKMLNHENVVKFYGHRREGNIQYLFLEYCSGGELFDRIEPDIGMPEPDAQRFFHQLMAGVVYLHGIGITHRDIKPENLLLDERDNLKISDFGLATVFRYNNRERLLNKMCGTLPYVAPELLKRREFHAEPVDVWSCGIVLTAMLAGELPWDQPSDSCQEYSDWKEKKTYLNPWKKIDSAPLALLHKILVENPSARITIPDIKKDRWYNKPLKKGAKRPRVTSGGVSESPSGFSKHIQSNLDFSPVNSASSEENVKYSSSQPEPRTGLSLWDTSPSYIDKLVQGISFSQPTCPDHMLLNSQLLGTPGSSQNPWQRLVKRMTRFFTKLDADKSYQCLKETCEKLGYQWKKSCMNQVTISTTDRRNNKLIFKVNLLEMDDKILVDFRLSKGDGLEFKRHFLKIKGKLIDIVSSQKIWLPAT
Could you give me the number in %? Just the number is fine.

Record excerpt, results attached:
Cc1cccc(N(C)c2cc(Nc3cccc(C(=O)N4CCCC5CCCCC54)c3)ncn2)c1 (centres undefined)	2
COc1cccc(Nc2cc(Nc3cccc(C(=O)NCCCn4ccnc4)c3)nc(N)n2)c1	5
COC[C@@H]1CCCN1C(=O)C1CCCN1c1cc(Nc2cccc(Br)c2)ncn1 (some centres undefined)	2

GET /values?readout=inhibition&item= O=C(C1CCN(c2nccc(Nc3ccccc3)n2)CC1)N1CC[C@@H](O)C1
4

Let us now turn to COc1ccc(NC(=O)Cc2ccc(Nc3cc(N(C)c4cccc(C)c4)ncn3)cc2)cn1
4

Param item: Cc1cccc(Oc2ccnc(N3CCN(C(=O)c4c(C)noc4C)CC3)n2)c1
3

What do you get for COC(=O)C(CO)NC(=O)[C@@H]1CCCN1c1nccc(Oc2cccc(C)c2)n1 (some centres undefined) ?
1

For CN(C)CC(C)(C)CNC(=O)c1cccc(Nc2nccc(Nc3ccc4ncsc4c3)n2)c1 then?
7

Another compound to check: O=C(COc1ccccc1)N1CCN(c2nccc(Nc3ccc4ncsc4c3)n2)CC1
4

----------
biological target: Ribosomal protein S6 kinase beta-1 (Homo sapiens) (UniProt P23443); assay: Inhibition of p70S6K at 10 uM by HTRF assay relative to control
Sequence (P23443 whole entry, looked up): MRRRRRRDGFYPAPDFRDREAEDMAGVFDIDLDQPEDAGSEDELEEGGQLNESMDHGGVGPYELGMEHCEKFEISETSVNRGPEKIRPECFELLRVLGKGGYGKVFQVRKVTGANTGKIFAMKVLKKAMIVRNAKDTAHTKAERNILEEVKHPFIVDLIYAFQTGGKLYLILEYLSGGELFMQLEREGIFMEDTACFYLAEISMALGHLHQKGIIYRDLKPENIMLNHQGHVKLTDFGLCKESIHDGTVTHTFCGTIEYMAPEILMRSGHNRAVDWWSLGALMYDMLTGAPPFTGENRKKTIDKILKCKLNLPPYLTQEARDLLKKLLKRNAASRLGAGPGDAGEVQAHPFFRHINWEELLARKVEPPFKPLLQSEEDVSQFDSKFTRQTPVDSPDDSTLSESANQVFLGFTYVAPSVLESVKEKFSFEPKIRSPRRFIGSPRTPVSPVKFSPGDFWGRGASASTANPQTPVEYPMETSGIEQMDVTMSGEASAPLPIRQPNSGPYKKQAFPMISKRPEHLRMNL
VALUE TYPE: inhibition (%)
Enter your answer as a number in %; do not include the unit.

# example entries with known answers
Cc1cccc(N(C)c2cc(Nc3cccc(C(=O)N(C)CCc4ccccn4)c3)ncn2)c1	9
CC(=O)CCCCC(=O)N1CCN(c2nccc(Oc3cccc(C)c3)n2)CC1	3
CC(=O)N1CCN(C(=O)c2cccc(Nc3cc(N(C)c4cccc(C)c4)ncn3)c2)CC1	4
O=C(C1CCN(c2nccc(Nc3ccccc3)n2)CC1)N1CC[C@@H](O)C1	10
COC[C@@H]1CCCN1C(=O)C1CCCN1c1cc(Nc2cccc(Br)c2)ncn1 (some centres not stated)	3

# context switch: different compound, same inhibition
// returns reported inhibition for input Cc1cccc(N(C)c2cc(Nc3cccc(C(=O)NCCCn4ccnc4)c3)ncn2)c1
8

----------
target: Inhibitor of nuclear factor kappa-B kinase subunit beta (Homo sapiens) (UniProt O14920); assay: Inhibition of IKK-beta at 10 uM by HTRF assay relative to control
Sequence (O14920 whole entry): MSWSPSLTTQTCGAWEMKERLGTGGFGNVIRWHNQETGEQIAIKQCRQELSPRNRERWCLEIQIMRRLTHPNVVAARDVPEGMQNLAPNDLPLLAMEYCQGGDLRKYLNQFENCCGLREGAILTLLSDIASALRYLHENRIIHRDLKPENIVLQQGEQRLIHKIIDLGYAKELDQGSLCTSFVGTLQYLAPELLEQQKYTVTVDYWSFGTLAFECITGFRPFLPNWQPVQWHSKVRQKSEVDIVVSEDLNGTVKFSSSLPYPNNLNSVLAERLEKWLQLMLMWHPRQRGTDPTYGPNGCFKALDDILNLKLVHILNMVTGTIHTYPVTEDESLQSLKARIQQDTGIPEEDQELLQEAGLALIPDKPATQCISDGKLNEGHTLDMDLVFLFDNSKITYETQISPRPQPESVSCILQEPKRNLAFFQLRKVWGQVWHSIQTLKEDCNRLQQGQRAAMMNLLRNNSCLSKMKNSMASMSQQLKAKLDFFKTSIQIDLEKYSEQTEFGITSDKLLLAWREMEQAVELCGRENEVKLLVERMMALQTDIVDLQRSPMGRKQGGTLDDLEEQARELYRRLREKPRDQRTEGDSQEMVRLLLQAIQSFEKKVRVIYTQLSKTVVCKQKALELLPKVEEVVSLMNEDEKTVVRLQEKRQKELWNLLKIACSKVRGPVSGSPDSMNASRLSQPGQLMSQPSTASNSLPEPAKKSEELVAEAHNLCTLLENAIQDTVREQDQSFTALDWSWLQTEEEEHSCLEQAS
The entries below are paired with their reported inhibition.
Answer in %, number only, no unit symbol.

Nc1nc(N2CCOCC2)cc(N2CCC(C(=O)NCCc3ccc(O)cc3)CC2)n1	4
COc1cccc(Nc2cc(N3CCC[C@H]3C(=O)NCCc3ccc(O)cc3)nc(N)n2)c1	4

Which inhibition is reported with Inhibitor of nuclear factor kappa-B kinase subunit beta (Homo sapiens) (UniProt O14920) for this entry: Nc1nc(Nc2ccc3ncsc3c2)cc(N2CCC[C@H]2C(=O)N[C@@H](CO)c2ccccc2)n1 ?
4

Source listed as ChEMBL document CHEMBL1150387.
